Biological target: T1, PUF4 RNA-binding domain (Saccharomyces cerevisiae, UniProt P25339 537-888)
T1 sequence: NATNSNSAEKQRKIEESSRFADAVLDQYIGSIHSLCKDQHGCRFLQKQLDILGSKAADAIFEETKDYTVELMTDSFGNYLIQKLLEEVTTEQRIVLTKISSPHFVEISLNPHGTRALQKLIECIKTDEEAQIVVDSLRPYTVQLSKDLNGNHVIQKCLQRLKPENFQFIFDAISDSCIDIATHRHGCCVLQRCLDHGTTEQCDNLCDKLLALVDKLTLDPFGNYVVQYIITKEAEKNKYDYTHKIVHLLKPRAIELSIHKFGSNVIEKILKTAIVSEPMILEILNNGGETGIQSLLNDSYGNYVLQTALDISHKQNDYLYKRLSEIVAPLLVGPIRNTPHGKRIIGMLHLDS
Experiment: Mg; RNA-MaP; 20 mM Na-HEPES pH 7.4, 30 mM KOAc, 0.75 mM MgCl2, 0.1% Tween-20, 5% glycerol, 0.1 mg/mL BSA, 2 mM DTT; 25 C; 0.0125-409.6 nM protein
Conditions: tags: N-His6-TEV cleaved; C-SNAP kept, Cy3B-labelled; label: tethered on chip by stalled RNA polymerase
reported endpoint: log10(Kd) (log10 of the value in nM)

binder	numeric readout
ACAAACAGUAUAUAUUAGGACAAAC (ssRNA) [Id_ii_S3_P4E.3_K4.2_C4.2_[C-2A]_[T-1G]_H4.2_A4.1_F4.1_T4.2_[T11G]]	1.31
UCUCUUUGUAACGUCUUCUCUU (ssRNA) [Ic_S1_P5E.1_K5.1_C5.1_H5.1_A5.1_[T5A]_[T6C]_[A7G]_F5.1_[T9C]_[A10T]_T5.1]	3.32
UCUCUUCUUCUCUCGUAUAUAUAUCUCUU (ssRNA) [Ie_S1_P3E.2_K3.1_C3.2_H3.1_[+1CTCTC]_A3.1_F3.1_T3.2]	2.71
UCUCUUUGUAUUCUGAUCUCUU (ssRNA) [Ib_S1_P5E.1_K5.1_C5.1_H5.1_A5.1_[A7C]_F5.1_[T9G]_T5.1]	1.78
ACAAACUUUUAUAUAUAUAACAAAC (ssRNA) [Id_iii_S3_P3E.6_K3.2_C3.3_[C-2T]_H3.2_A3.1_F3.1_T3.2]	2.78
UCUCUUCUUAUAUUAUUAAAUCUCUU (ssRNA) [Id_ii_S1_P5E.3_K5.2_C5.2_H5.2_A5.1_F5.1_T5.2_[T11A]]	2.86
ACAAACCUUAUAUAUAGCACAAAC (ssRNA) [Id_ii_S3_P3E.3_K3.2_C3.2_H3.2_A3.1_F3.1_T3.2_[T9G]_[A10C]]	2.16
UCUCUUUCUAUAUAUUACAUCUCUU (ssRNA) [Id_ii_S1_P4E.3_K4.2_C4.2_[C-2T]_[T-1C]_H4.2_A4.1_F4.1_T4.2_[G10C]_[T11A]]	1.36
Ic_S2_P4E.1_K4.1_C4.1_H4.1_A4.1_[T5C]_[A6C]_[T7A]_F4.1_[T8A]_[A9C]_T4.1 (ssRNA) RNA: UUUGAUUAAUAUGAUAUCGUUCUUUCUUGUACCAACUUCUUUCUCGAUAUCAUAUUAAUCUUU	2.85
Ib_S4_P3E.1_K3.1_C3.1_H3.1_A3.1_[A6T]_F3.1_[T7C]_T3.1 (ssRNA) RNA: UUUGACAACUGAUCGUUCUUUCUUGUAUUCAUUCUUUCUCGAUCAGUUGUCUUU	2.08
Id_ii_S4_P3E.2_K3.1_C3.2_[C-2T]_[T-1C]_H3.1_A3.1_F3.1_T3.2_[T9A]_[A10T] (ssRNA) RNA: UUUGACAACUGAUCGUUCUUUCUUCUGUAUAUAAUUUCUUUCUCGAUCAGUUGUCUUU	0.18
Ic_S2_P5E.1_K5.1_C5.1_H5.1_A5.1_[T5A]_[T6A]_F5.1_[T9C]_[A10T]_T5.1 (ssRNA) RNA: UUUGAUUAAUAUGAUAUCGUUCUUUCUUGUAAAAUCUUUCUUUCUCGAUAUCAUAUUAAUCUUU	1.91
UCUCUUUGUAUCGGUAUCUCUU (ssRNA) [Ic_S1_P5E.1_K5.1_C5.1_H5.1_A5.1_[T6C]_[A7G]_F5.1_[T8G]_T5.1]	1.64
UCUCUUUGUACCUGUCUCUU (ssRNA) [Ic_S1_P3E.1_K3.1_C3.1_H3.1_A3.1_[T5C]_[A6C]_F3.1_[A8G]_T3.1]	2.06
Id_ii_S4_P4E.2_K4.1_C4.2_[C-2T]_H4.1_A4.1_F4.1_T4.2_[T11C] (ssRNA) RNA: UUUGACAACUGAUCGUUCUUUCUUUUGUAUAUUAGCUUCUUUCUCGAUCAGUUGUCUUU	-0.47
